Assay: Free energy of hydration by Free Energy Machine Learning Model (FML)
Settings: absolute error vs Exp (hydration)
Text: Machine learning models can be used for free energy determination.
Field 'label' (enum: met / not met). Set to met when FML error is strictly under 0.2 kcal/mol; else not met.

(Q) For this compound, is FML error lower than 0.2 kcal/mol? "CCCC(C)=O"
(A) not met

(Q) Item "CC(C)O" : FML error beneath 0.2 kcal/mol, strictly?
(A) not met

(Q) I wonder whether CCC(N)=O [propionamide] has FML error below 0.2 kcal/mol. Can you tell?
(A) not met

(Q) In plain terms, does "CCCCC(C)=O" come in under 0.2 kcal/mol for FML error?
(A) met

(Q) Lab log: compare recorded FML error with 0.2 kcal/mol; is it strictly lower for "CCC" ?
(A) not met

(Q) Given the entry "CCC(=O)CC" , would its reported FML error be below 0.2 kcal/mol?
(A) met

(Q) For this compound, is FML error lower than 0.2 kcal/mol? "CCCCCCCCO"
(A) met

(Q) Input "C1CCCC1" ; condition: FML error strictly below 0.2 kcal/mol. Does it hold?
(A) not met

(Q) Identify whether the compound "CC=O" records FML error below 0.2 kcal/mol.
(A) met

(Q) Confirm or reject: FML error of "Cc1cccc(O)c1" lies strictly below 0.2 kcal/mol
(A) not met

(Q) Lab note: confirm whether the reported FML error for this compound is below 0.2 kcal/mol, equality not counting. compound: "CCC=O"
(A) met

(Q) Input "CCCCCO" ; condition: FML error strictly below 0.2 kcal/mol. Does it hold?
(A) not met

* * *

Experiment: CHEX/H2O partition coefficient (log D) predicted with the QM-parameterized force field model (ARROW FF)
REPORTED PROPERTY: logD Arrow MD Error
Give a plain numeric answer without units written out.

(Q) If you can, please state the reported logD Arrow MD Error value of CCC [Propane] .
(A) 0.31

(Q) logD Arrow MD Error lookup needed for CCCCN [butanamine] , thanks.
(A) 0.81

(Q) I am curious: what logD Arrow MD Error value has been reported for Cc1ccc(O)cc1 [p-cresol] ?
(A) 0.73

(Q) # get_value(readout='logD Arrow MD Error', item= CCC(=O)O [propionicacid] )
(A) 0.22

(Q) // query logD Arrow MD Error value for entry CC(C)C [Isobutane]
(A) 0.44

(Q) Which measured logD Arrow MD Error value corresponds to Cc1c[nH]c2ccccc12 [3-methyl-indole] ?
(A) 1.29

(Q) Fill in: logD Arrow MD Error of CCSC [EthylMethylSulfide] is ___
(A) 0.27

(Q) Data request, read-out logD Arrow MD Error, for CO [Methanol]
(A) 0.10

* * *

Test: Free energy of hydration predicted with the QM-parameterized force field model (ARROW FF), classical MD and PIMD simulation in a water box
Conditions: absolute error vs Exp (hydration)
Grouping rule (Arrow PIMD8 Error): bin 0 (below 0.1 kcal/mol), bin 1 (0.1 kcal/mol to below 0.3 kcal/mol), bin 2 (0.3 kcal/mol or more)

(Q) Category lookup for the compound "CC(C)O"
(A) bin 0

(Q) Dear colleague, I would appreciate it if you could identify the bin for CCC(C)O (stereo not drawn) and reply at your convenience.
(A) bin 0

(Q) Lab note: sort "C=CC" into the matching Arrow PIMD8 Error band.
(A) bin 0

(Q) Which Arrow PIMD8 Error band matches CCCC(C)O (stereo not drawn) ?
(A) bin 0

(Q) Category lookup for the compound "C1CC1"
(A) bin 1

(Q) Classify this compound: "Cc1ccccc1O"
(A) bin 1

(Q) Input "c1ccccc1" ; output its category
(A) bin 1

(Q) Form field 'band' for CC(N)=O [Acetamide]
(A) bin 0

(Q) Sort "c1ccc2ccccc2c1" into one of the categories.
(A) bin 1

(Q) Into which category would you place "CC(C)(C)O" ?
(A) bin 2

(Q) Using the reported Arrow PIMD8 Error, which band applies to "CCCCCCCCO" ?
(A) bin 1

(Q) Hey, which category is "CCCCC(C)=O" in, do you know?
(A) bin 1

(Q) Dear colleague, I would appreciate it if you could identify the bin for "CCC(=O)CC" and reply at your convenience.
(A) bin 1

(Q) Sort into band: "CCCC(C)=O"
(A) bin 0

(Q) Kindly state the category for this compound: "c1cc2ccc3cccc4ccc(c1)c2c34"
(A) bin 0

(Q) Textbook exercise: identify the category of the compound given here, "CCC(O)CC" , according to its measured value.
(A) bin 1

(Q) Class for "Cc1cccc(O)c1" ?
(A) bin 2

(Q) Quick check: band for "CCC(=O)O"
(A) bin 1

(Q) Which class is correct for the following compound? "CC(C)=O"
(A) bin 2

(Q) Which class holds "CCCC(=O)O" ?
(A) bin 2

(Q) Note: place this compound into its band. Item: "c1ccc2c(c1)ccc1ccccc12"
(A) bin 0

(Q) Which class does "COC" fall in?
(A) bin 2

(Q) Please let me know in which category the item CSC [DiMethylSulfide] belongs.
(A) bin 1

(Q) Any idea which band "O" is in?
(A) bin 1

(Q) The entry to classify is "CNC" ; which class holds it?
(A) bin 1

(Q) Please let me know in which category the item "OC1CCCCC1" belongs.
(A) bin 2

(Q) Quick check: band for "CO"
(A) bin 2

(Q) In plain terms, what class is "CC=O" ?
(A) bin 1

(Q) Returns: class label. Input: "CN(C)C"
(A) bin 0

(Q) Using the reported Arrow PIMD8 Error, which band applies to CCOC(C)=O [EthylAcetate] ?
(A) bin 2

(Q) // bin(item) where item = "CCCCS"
(A) bin 2

* * *

Test: Free energy of hydration by Solvation Model Dielectric (SMD) implicit solvent model
Conditions: absolute error vs Exp (hydration)
REPORTED PROPERTY: SMD Error
Report as: number unit

(Q) Which SMD Error reading was recorded for the compound "CCC(=O)CC" ?
(A) 0.09 kcal/mol

(Q) Report SMD Error for "CC(C)(C)C" please.
(A) 0.30 kcal/mol

(Q) Look up SMD Error for this compound: "CCC"
(A) 0.16 kcal/mol

(Q) Tell me the measured SMD Error of CCCOC(C)=O [PropylAcetate] , please.
(A) 0.14 kcal/mol

(Q) Any idea what its SMD Error is? The compound is "Nc1ccccc1"
(A) 0.74 kcal/mol

(Q) Name the recorded SMD Error for "Cc1cccc(O)c1" .
(A) 0.69 kcal/mol

(Q) Would you mind telling me what SMD Error value was observed for "CCCOC" ?
(A) 1.16 kcal/mol

(Q) Please report the recorded SMD Error for "CC(C)(C)O" .
(A) 0.71 kcal/mol

(Q) Requested field: SMD Error. Item: "C1CCCCC1"
(A) 0.17 kcal/mol

(Q) I'd like to know its SMD Error. The compound in question is "CS"
(A) 0.42 kcal/mol

(Q) Fill in the blank: the reported SMD Error of "c1ccncc1" is ____.
(A) 0.49 kcal/mol

(Q) Request the reported SMD Error associated with "CCCCC(C)=O"
(A) 0.22 kcal/mol

(Q) Suppose we examine the compound "C=CC" ; what SMD Error value has been reported?
(A) 0.12 kcal/mol

(Q) Sample CCSCC [DiEthylSulfide] — what was its SMD Error?
(A) 1.23 kcal/mol

(Q) # lookup: SMD Error of "CC(C)C"
(A) 0.28 kcal/mol

(Q) Report SMD Error for "CCO" please.
(A) 0.81 kcal/mol

(Q) Look up SMD Error for this compound: "CCC(C)=O"
(A) 0.09 kcal/mol

* * *

Assay: Free energy of hydration predicted with the QM-parameterized force field model (ARROW FF), classical MD and PIMD simulation in a water box
Settings: Table 4; error of MD hydration free energy vs experiment
1 means recorded water Arrow MD Error is 0.8 kcal/mol or above; -1 means it is below 0.8 kcal/mol.

(Q) I'd appreciate it if you could say whether CC(N)=O [Acetamide] has water Arrow MD Error at least equal to 0.8 kcal/mol.
(A) 1

(Q) Does the reported water Arrow MD Error for "Cc1ccccc1" fall at or above the 0.8 kcal/mol mark?
(A) 1

(Q) For this compound, is measured water Arrow MD Error 0.8 kcal/mol or higher? CCC(N)=O [propionamide]
(A) 1

(Q) Item "C" with water Arrow MD Error of 0.8 kcal/mol or above?
(A) -1

* * *

Provide the recorded water Arrow MD Error for the entries that follow.
Test: Free energy of hydration predicted with the QM-parameterized force field model (ARROW FF), classical MD and PIMD simulation in a water box
Conditions: Table 3; absolute error of MD hydration free energy vs experiment

(Q) # water Arrow MD Error lookup, item CCSC [EthylMethylSulfide]
(A) 0.47 kcal/mol

(Q) Any idea what water Arrow MD Error was measured for "CCN" ?
(A) 1.03 kcal/mol

(Q) Requested field: water Arrow MD Error. Item: "c1cc2ccc3cccc4ccc(c1)c2c34"
(A) 0.45 kcal/mol

(Q) Need water Arrow MD Error of "CN(C)C" , thanks.
(A) 1.04 kcal/mol

(Q) Entry "CCCC(C)=O" : reported water Arrow MD Error = ?
(A) 0.67 kcal/mol

(Q) Which water Arrow MD Error is listed for "CCCC=O" ?
(A) 0.61 kcal/mol
